- System: Madurella mycetomatis MM55
- assay.procedure: growth relative to untreated control; higher = less inhibition, active = 20 or less
- measurement.setup: 25 µM
Attribute: growth
quantity: growth (%)

compound=CC(=O)Oc1ccccc1C(=O)Nc1ncc([N+](=O)[O-])s1 unit_symbol=% result_number=87.7
compound=Cc1ccc(C(=O)Nc2ccc(CN3CCN(C)CC3)c(C(F)(F)F)c2)cc1C#Cc1cnc2cccnn12 unit_symbol=% result_number=16.4
compound=Cc1cccc(C=NNc2cc(N3CCOCC3)nc(OCCc3ccccn3)n2)c1 unit_symbol=% result_number=45.9
compound=CN(C)CCCN1c2ccccc2CCc2ccc(Cl)cc21 unit_symbol=% result_number=38.1
compound=O=C(NC1CCN(CCOc2ccc(Cl)cc2)CC1)c1c[nH]c2ccncc2c1=O unit_symbol=% result_number=90.2
compound=CO[C@@H](C(=O)N1Cc2[nH]nc(NC(=O)c3ccc(N4CCN(C)CC4)cc3)c2C1)c1ccccc1 unit_symbol=% result_number=94
compound="Cc1nn(C2CCS(=O)(=O)C2)c(C)c1C1Nc2ccccc2C(=O)N1Cc1ccc2c(c1)OCO2 (stereo not given)" unit_symbol=% result_number=82.2
compound=CC(C)Nc1cc2c(cn1)nc(Nc1cc(Cl)cc(C#N)c1)n2C1CCNCC1 unit_symbol=% result_number=106
compound=CCCCc1oc2ccccc2c1C(=O)c1cc(I)c(OCCN(CC)CC)c(I)c1 unit_symbol=% result_number=78.3
compound="Cc1nc2ccccn2c1C1(O)C(=O)Nc2c(Cl)cc(Cl)cc21 (stereo not given)" unit_symbol=% result_number=99.3

====

- Test system: Falciformispora senegalensis CBS197.79
- assay.procedure: growth relative to untreated control; higher = less inhibition, active = 20 or less
- measurement.setup: 25 µM
quantity: growth (%)

smiles_record=CN1CCC(Oc2nc(Nc3ccccc3)nc3[nH]cc(-c4cnn(C)c4)c23)CC1 quantity=growth unit_symbol=% result_number=89
smiles_record=c1cc(N2CCC(CN3CCOCC3)CC2)c2sccc2n1 quantity=growth unit_symbol=% result_number=79
smiles_record=CC1(O)CN(C(=O)c2cccc(NC(=O)c3ccc(Nc4ccccn4)cc3)c2)C1 quantity=growth unit_symbol=% result_number=106
smiles_record=FC(F)(F)c1cc(Nc2nc3cnc(NCC4CC4)nc3n2C2CCNCC2)cc(C(F)(F)F)c1 quantity=growth unit_symbol=% result_number=81.9
smiles_record=CC[C@@H]([C@H](C)O)n1ncn(-c2ccc(N3CCN(c4ccc(OC[C@@H]5CO[C@@](Cn6cncn6)(c6ccc(F)cc6F)C5)cc4)CC3)cc2)c1=O quantity=growth unit_symbol=% result_number=25.2
smiles_record=O=C(Nc1ncc([N+](=O)[O-])s1)c1ccccc1O quantity=growth unit_symbol=% result_number=95.8
smiles_record=Clc1cccc2cnsc12 quantity=growth unit_symbol=% result_number=96.1
smiles_record=CN(C)CCOc1ccc2nc(-c3cccc(OCc4ccccc4)c3)[nH]c2c1C#N quantity=growth unit_symbol=% result_number=50.2
smiles_record=C[C@@H]1CCCN1CCc1cc2cc(-c3ccc(C#N)cc3)ccc2o1 quantity=growth unit_symbol=% result_number=98.4
smiles_record=Cc1cc(C)c(Nc2ccnc(Nc3ccc(C#N)cc3)n2)c(C)c1 quantity=growth unit_symbol=% result_number=103

====

- System: Falciformispora senegalensis CBS197.79
- assay.procedure: growth relative to untreated control; higher = less inhibition, active = 20 or less
- measurement.setup: 25 µM
y means recorded growth is 90% or above; n means it is below 90%.

compound=NC(=O)C(c1ccccc1)(c1ccccc1)[C@@H]1CCN(CCc2ccc3c(c2)CCO3)C1 measurement_target="Falciformispora senegalensis CBS197.79" class=y
compound="CS(=O)(=O)NC1CCN(C(=O)c2ccc(Nc3nccc(-c4cc(Cl)cc(C(F)(F)F)c4)n3)cc2)C1 (stereo not given)" measurement_target="Falciformispora senegalensis CBS197.79" class=y
compound="c1ccc(-c2ccnc(C3CCN(CC45CNCC4C5)CC3)n2)cc1 (stereo not given)" measurement_target="Falciformispora senegalensis CBS197.79" class=n
compound="CNC(=O)c1cc(-c2n[nH]c3ccc(-c4nc(C5CCCN5)n[nH]4)cc23)ccc1F (stereo not given)" measurement_target="Falciformispora senegalensis CBS197.79" class=y
compound=CN(C)CCNC(=O)c1csc(Nc2ccc(Cl)c(Cl)c2)n1 measurement_target="Falciformispora senegalensis CBS197.79" class=y
compound=O=C(c1ccc(Nc2nccc(-c3ccc(C(F)(F)F)c(Cl)c3)n2)cc1)N1CC(O)C1 measurement_target="Falciformispora senegalensis CBS197.79" class=y
compound=C[C@@H](O[C@H]1OCCN(Cc2n[nH]c(O)n2)[C@H]1c1ccc(F)cc1)c1cc(C(F)(F)F)cc(C(F)(F)F)c1 measurement_target="Falciformispora senegalensis CBS197.79" class=y
compound=Cc1c2c(n3c(nc4ccccc43)c1C#N)N(CCN(C)C)CC2 measurement_target="Falciformispora senegalensis CBS197.79" class=n
